Entry source: the RNAGym collection of RNA variant scans (doi:10.7554/elife.80360)

B1: CPEB3 Ribozyme (parent)
chain: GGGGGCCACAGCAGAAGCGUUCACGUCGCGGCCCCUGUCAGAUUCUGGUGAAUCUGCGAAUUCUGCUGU

- Variants of: B1
- TEST: self-cleavage, relative activity (ratio to wild type); higher = more cleavage; co-transcriptional
# class assignment by measured self-cleavage: zone 1 (below 0.2), zone 2 (0.2 to below 0.9), zone 3 (0.9 or more)

Pick a category. Item: U36A G50A
zone 2

Pick a category. Item: G4C A51C
zone 2

Pick a category. Item: A13U C27A
zone 2

Pick a category. Item: U20G A52G
zone 2

Pick a category. Item: A13G U46A
zone 3

Pick a category. Item: U44A U62C
zone 2

Pick a category. Item: G3C G31C
zone 1

Pick a category. Item: G11A U69A
zone 3

Pick a category. Item: G19C C54G
zone 1

Pick a category. Item: G25U G65C
zone 1

Pick a category. Item: C39A C57G
zone 2

Pick a category. Item: C32U U62G
zone 2

Pick a category. Item: G14C G28C
zone 1

Pick a category. Item: G4U G25U
zone 1

Pick a category. Item: C24U C29G
zone 2

Pick a category. Item: U38G U43A
zone 2

Pick a category. Item: G30C G56A
zone 2

Pick a category. Item: A23U U46G
zone 3

Pick a category. Item: C22G A60U
zone 1

Pick a category. Item: G3U U69A
zone 2

Pick a category. Item: G14U A52C
zone 2

Pick a category. Item: C33U A42C
zone 2

Pick a category. Item: G11U G58C
zone 2

Pick a category. Item: G4U C54G
zone 2

Pick a category. Item: U36C A59U
zone 2

Pick a category. Item: C24A G37C
zone 2

Pick a category. Item: G30C A51C
zone 2

Pick a category. Item: G41A C54U
zone 3

Pick a category. Item: G50C U69A
zone 3

Pick a category. Item: G47C C57U
zone 2

Pick a category. Item: C33G A40U
zone 2

Pick a category. Item: G11C G17U
zone 1

Pick a category. Item: U44G C45A
zone 3

Pick a category. Item: A8C C66U
zone 3

Pick a category. Item: G5A G28U
zone 1

Pick a category. Item: C7G C34A
zone 1

Pick a category. Item: G3U G65C
zone 1

Pick a category. Item: A8G C29U
zone 2

Pick a category. Item: C54U U67A
zone 3

Pick a category. Item: A59G U67C
zone 3
